Target: Muscarinic acetylcholine receptor M1 (Homo sapiens)
Sequence (whole entry): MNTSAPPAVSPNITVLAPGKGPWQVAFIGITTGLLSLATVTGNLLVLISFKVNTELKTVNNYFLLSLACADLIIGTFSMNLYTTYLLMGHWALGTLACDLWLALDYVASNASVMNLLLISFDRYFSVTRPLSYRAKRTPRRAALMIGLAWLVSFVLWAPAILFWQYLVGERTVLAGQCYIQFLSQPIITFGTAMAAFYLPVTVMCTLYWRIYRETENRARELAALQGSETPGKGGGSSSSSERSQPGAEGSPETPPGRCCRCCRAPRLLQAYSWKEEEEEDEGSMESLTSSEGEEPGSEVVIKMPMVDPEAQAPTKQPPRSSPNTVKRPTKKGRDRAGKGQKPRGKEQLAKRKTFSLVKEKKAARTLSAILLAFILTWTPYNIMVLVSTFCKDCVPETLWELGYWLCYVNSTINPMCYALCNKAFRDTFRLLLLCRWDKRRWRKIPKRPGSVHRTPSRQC
Experiment: Agonist activity at human M1 receptor expressed in HEK293T cells by BRET based beta-arrestin engagement assay relative to carbachol
Format: cell-based
Settings: HEK-293T
Quantity measured: Emax (%)
Numeric answer only, unit % assumed.

Illustrative cases are given below, each with its answer.
Compound: CN1CCC=C(c2nsnc2OCCCCCCCCCC2CCN(CCCN3C(=O)CCc4ccccc43)CC2)C1
Assay result: 81
--
Compound: CCCCCCOc1nsnc1C1=CCCN(C)C1 [XANOMELINE]
Assay result: 95
--
Compound: CN1CCC=C(c2nsnc2OCCCCCCCC2CCN(CCCN3C(=O)CCc4ccccc43)CC2)C1
Assay result: 42
--
Compound: O=C1CCc2ccccc2N1CCCN1CCC(CCCCCCCCCO)CC1
Assay result: 50

Proceed to the following item.
Input: State, for Muscarinic acetylcholine receptor M1 (Homo sapiens), measured Emax of the compound listed here: CCCCC1CCN(CCCN2C(=O)CCc3ccccc32)CC1
Output: 32

====

Molecular target: Muscarinic acetylcholine receptor M1 (Homo sapiens) (UniProt P11229)
Assay: Agonist activity at human M1 receptor expressed in HEK293T cells by BRET based Gq protein engagement assay relative carbachol
Assay type: cell-based
Details: HEK-293T
The reader will find reported Emax values listed item by item below.
Numeric answer only, unit % assumed.

Cpd smiles: O=C1CCc2ccccc2N1CCCN1CCC(CCCCCCCO)CC1
Emax [%]: 76
--
Cpd smiles: O=C1CCc2ccccc2N1CCCN1CCC(CCCCCO)CC1
Emax [%]: 58
--
Cpd smiles: CN1CCC=C(c2nsnc2OCCCCCCCC2CCN(CCCN3C(=O)CCc4ccccc43)CC2)C1
Emax [%]: 42

Input: For the molecule CCCCC1CCN(CCCN2C(=O)CCc3ccccc32)CC1 , report Emax.
Output: 81

Input: For the molecule CCCCCCOc1nsnc1C1=CCCN(C)C1 , report Emax.
Output: 54

====

Molecular target: Muscarinic acetylcholine receptor M4 (Homo sapiens)
Sequence (P08173 whole entry): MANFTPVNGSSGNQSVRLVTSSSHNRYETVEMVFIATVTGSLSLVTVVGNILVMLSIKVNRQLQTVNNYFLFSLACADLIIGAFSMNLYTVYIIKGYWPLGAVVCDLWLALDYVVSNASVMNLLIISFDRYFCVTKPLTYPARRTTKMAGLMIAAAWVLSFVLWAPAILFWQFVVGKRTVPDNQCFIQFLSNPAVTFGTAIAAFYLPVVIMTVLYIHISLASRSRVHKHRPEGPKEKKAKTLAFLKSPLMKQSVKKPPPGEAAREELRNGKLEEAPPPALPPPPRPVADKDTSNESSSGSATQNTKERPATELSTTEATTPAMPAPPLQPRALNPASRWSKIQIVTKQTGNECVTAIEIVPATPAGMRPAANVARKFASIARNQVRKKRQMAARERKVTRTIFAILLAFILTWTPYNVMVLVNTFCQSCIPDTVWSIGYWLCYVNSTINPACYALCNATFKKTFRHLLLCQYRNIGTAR
Test: Antagonist activity at human M4 receptor expressed in HEK293T cells assessed as inhibition of xanomeline-induced response by BRET based Gq protein engagement assay
Format: cell-based, HEK-293T
Quantity measured: pIC50
In simple prose, pIC50 is minus the logarithm base ten of a concentration in moles per litre.

Input: For the compound CCCCC1CCN(CCCN2C(=O)CCc3ccccc32)CC1 , report pIC50.
Output: 3.92
